target: T1, human CD117 ectodomain (human, UniProt P10721 26-524, biotinylated (BirA co-expression) where captured on streptavidin biosensors); assay: ELISA, human CD117, monovalent Fc fusion
T1 construct: extracellular domain; also called cKIT; full length AviTagged CD117 ectodomain; not shown: C-terminal AviTag or His tag
T1 sequence (P10721 26-524): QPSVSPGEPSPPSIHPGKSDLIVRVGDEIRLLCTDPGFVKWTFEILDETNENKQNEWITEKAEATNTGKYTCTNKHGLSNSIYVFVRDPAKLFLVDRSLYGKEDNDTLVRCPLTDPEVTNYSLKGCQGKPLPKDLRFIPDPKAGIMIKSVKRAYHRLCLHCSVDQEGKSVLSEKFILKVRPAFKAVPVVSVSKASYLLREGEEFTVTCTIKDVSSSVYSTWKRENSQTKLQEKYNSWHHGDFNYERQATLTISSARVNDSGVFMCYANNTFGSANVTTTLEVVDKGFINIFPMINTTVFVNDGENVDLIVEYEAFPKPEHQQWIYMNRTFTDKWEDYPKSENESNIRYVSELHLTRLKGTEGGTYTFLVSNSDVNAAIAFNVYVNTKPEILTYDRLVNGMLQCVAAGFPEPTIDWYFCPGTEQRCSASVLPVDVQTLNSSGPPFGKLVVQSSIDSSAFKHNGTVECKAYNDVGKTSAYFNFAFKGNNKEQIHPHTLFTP
# reported Kd; entries follow
Use nM as the unit, but write only the number.

P-0031 (Fc fusion, Any second Fc chain without VHH is not described in the text; also called monovalent form of P31; not shown: Fc fragment) EVQLVESGGGLVRAGGSLRLSCAASGRTFTYDARAWFRQAPGKEREFVAAISWSGGSTYYPNSMKGRFTISRDNAKNTVYLQMNSLKPEDTAVYYCAADESFPAYYSDYALYRYWGQGTLVTVSS | 0.52

# Kd (binder: P-0027 (Fc fusion, Any second Fc chain without VHH is not described in the text; also called monovalent form of P27; not shown: Fc fragment) EVQLVESGGGLVRAGGSLRLSCAASGRTTFSTYWLGWFRQAPGKNREFVAAISWSAGMAYYQDSKGRFTISRDNTKNTAYLQMNSLQPEDTAVYYCAAGRFHPIRVDTALYWAQGTQVTVSS ) is 1.32

# Kd (binder: P-0035 (Fc fusion, Any second Fc chain without VHH is not described in the text; also called monovalent form of P35; not shown: Fc fragment) QVQLVESGGGLVQAGGSLRLSCAASGGTFSIYPVGWFRQAPGKQREFVAAIGWSASGTYYGDSVEGRFTVSRDNARSTVYLRMSSLKPDDTAVYYCAAASGSNWRLGAIDEYDSWGQGTQVTVSS ) is 1.91

# Kd (binder: P-0012 (Fc fusion, Any second Fc chain without VHH is not described in the text; also called monovalent form of P12; not shown: Fc fragment) QVQLVESGGGLVQAGGSLRLSCTASGDTFSSYSMGWFRQGPGKEREFVGGIRWSGGTTYYADSVKGRFTISRDNAKNTVYLQMNSLKREDTAVYYCAAVRRRWLIWQEEEYDYWGQGTLVTVSS ) is 1.04

# Kd (binder: P-0010 (Fc fusion, Any second Fc chain without VHH is not described in the text; also called monovalent form of P10; not shown: Fc fragment) QVQLVESGGGLVQAGGSLRLSCVASGRTFSSYAMGWFRQGPGKEREFAAAILSNGLTTYYADSVKGRFTISRDNAKDTVYLQMNSLKPEDTANYYCAAAFTPEFRDGGIWDDASVDYWGQGTQVTVSS ) is 0.28

# Kd (binder: P-0032 (Fc fusion, Any second Fc chain without VHH is not described in the text; also called monovalent form of P32; not shown: Fc fragment) QVQLVESGGGLVQAGDSLRLSCAASGRTFSSYAMGWFRQAPGKEREFVASITSSGLVAYYGDSVEARFTISRDNAKNTVYLQMDSLKPEDTAVYYCAARQYVGSGSYYLKKEGGYEYWGPGTQVTVSS ) is 1.49

# Kd (binder: P-0029 (Fc fusion, Any second Fc chain without VHH is not described in the text; also called monovalent form of P29; not shown: Fc fragment) QVHLVESGGGLVQAGGSLGLSCAASGHTFSNYAMGWFRQAPGKEREFVAAISWSGGSTLYADSVKGRFTISRDNGENTVYLQMNSLKPEDTAVYYCALDSTGVYGTGYVSSRKGRYEYWGQGTLVTVSS ) is 2.48

# Kd (binder: P-0037 (Fc fusion, Any second Fc chain without VHH is not described in the text; also called monovalent form of P37; not shown: Fc fragment) QVQLVESGGGLVQAGDSLRLSCAVSGRTLSNYFMAWLRQAPGKEREFVAAIHWSLGSTYYQDPVKGRFTISRDKAKNTVYLQMNTLKPEDTATYICAAGQHLSGLGGSAWSIEGDYWGQGTQVTVSS ) is 0.97

# Kd (binder: P-0038 (Fc fusion, Any second Fc chain without VHH is not described in the text; also called monovalent form of P38; not shown: Fc fragment) EVQLVESGGGLVQAGGSLRLSCAASGRTSGSYVMGWFRQAPGKEREFVAAISWSAGMTYYADSVKGRFTISRDNAKNTVYLQMNSLKPEDTAVYYCAADQRGVPAYYSDYALYDYWGQGTQVTVSS ) is 1
